Measured values drawn from patent US11142515B2 for this set.

- TARGET_DESC: GSK 3α enzyme isoform (Homo sapiens)
- Construct: purchased Life Technologies
- Sequence (P49840 whole entry, canonical isoform): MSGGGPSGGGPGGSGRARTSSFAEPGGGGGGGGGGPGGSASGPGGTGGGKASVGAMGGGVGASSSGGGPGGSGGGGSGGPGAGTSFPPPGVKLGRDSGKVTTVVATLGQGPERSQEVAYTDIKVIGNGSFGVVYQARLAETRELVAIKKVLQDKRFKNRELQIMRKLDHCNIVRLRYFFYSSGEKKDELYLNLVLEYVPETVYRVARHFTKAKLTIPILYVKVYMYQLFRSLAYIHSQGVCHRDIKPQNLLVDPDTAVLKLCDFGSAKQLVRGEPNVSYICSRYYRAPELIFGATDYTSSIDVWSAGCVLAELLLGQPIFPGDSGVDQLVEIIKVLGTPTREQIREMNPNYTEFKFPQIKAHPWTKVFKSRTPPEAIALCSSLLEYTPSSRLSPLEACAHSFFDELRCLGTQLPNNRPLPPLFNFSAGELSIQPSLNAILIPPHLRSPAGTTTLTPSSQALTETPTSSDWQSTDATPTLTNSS
- ASSAY_EXPLANATION: GSK 3α enzyme inhibition (Z-LYTE FRET)
- Type: biochemical
- CONDITION_CONTEXT: Table 2A; read-out: IC50 Values for Enzyme Inhibition GSK3α
Overview of reported IC50 across a group of molecules:

Known results for molecules:
>>> result("COc1ccc(-n2nc(C(C)(C)C)cc2NC(=O)Nc2ccc(OCc3ccnc(Nc4cnccn4)c3)c3ccccc23)cc1C")
"> 15.9 µM"
>>> result("Cc1ccc(-n2nc(C(C)(C)C)cc2NC(=O)Nc2ccc(OCc3ccnc(Nc4cnccn4)c3)c3ccccc23)cc1")
"> 16.7 µM"
>>> result("COCCNC(=O)c1cnc(Nc2cc(COc3ccc(NC(=O)Nc4cc(C(C)(C)C)nn4-c4ccc(C)cc4)c4ccccc34)ccn2)cn1")
"> 14.3 µM"
>>> result("CC(C)(C)c1cc(NC(=O)Nc2ccc(OCc3ccnc(Nc4cncc(C5CC5)n4)c3)c3ccccc23)n(-c2ccc(O)cc2)n1")
"1.2 µM"
>>> result("Cc1ccc(-n2nc(C(C)(C)C)cc2NC(=O)Nc2ccc(OCc3ccnc(Nc4cncc(C#N)n4)c3)c3ccccc23)cc1")
"> 16 µM"

Read the next record carefully.
Provide value of IC50 for this record tested with GSK 3α enzyme isoform (Homo sapiens): Cc1ccc(-n2nc(C(C)(C)C)cc2NC(=O)Nc2ccc(OCc3ccnc(Nc4cnccn4)c3)c3ccccc23)s1
> 14.7 µM
